Molecular target: USP5 (Homo sapiens, UniProt P45974)
Sequence (P45974 2-858): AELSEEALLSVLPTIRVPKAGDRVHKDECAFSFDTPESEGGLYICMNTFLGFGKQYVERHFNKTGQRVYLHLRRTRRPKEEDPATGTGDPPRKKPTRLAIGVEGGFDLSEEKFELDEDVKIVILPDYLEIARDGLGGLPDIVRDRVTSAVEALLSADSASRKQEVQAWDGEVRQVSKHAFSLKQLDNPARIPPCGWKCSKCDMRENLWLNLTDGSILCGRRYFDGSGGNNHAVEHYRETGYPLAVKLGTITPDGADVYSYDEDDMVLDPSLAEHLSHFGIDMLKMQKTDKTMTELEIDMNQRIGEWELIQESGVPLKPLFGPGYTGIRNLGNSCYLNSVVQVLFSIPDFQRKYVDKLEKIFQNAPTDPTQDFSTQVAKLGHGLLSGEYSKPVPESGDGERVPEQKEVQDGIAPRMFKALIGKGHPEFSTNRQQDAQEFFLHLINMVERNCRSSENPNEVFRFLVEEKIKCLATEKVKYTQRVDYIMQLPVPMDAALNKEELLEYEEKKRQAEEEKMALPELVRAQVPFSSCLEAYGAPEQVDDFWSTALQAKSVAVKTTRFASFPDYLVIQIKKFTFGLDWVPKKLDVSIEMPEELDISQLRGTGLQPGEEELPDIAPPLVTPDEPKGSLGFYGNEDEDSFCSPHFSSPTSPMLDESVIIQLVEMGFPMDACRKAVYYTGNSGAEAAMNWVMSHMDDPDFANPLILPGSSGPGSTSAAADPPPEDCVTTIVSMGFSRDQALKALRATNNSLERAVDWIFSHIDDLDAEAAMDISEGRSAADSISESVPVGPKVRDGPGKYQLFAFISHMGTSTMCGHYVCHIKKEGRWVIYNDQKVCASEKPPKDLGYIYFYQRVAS
READOUT: Kd (nM)
Give a bare numeral; the unit nM is implied.

Data request: Using the record for O=C(CCCCCCC(=O)Nc1ccccc1)NO [SAHA] , report its Kd.
Data returned: 2760

Source listed as paper PMC8016666.
